# Tested on: human Peripheral Blood Mononuclear Cell (PMBC)
# ASSAY METHOD TEXT: PBMC assay: cytokine (IFN-α) stimulation at 24 hours
# Format: cell-based
# PARTICULARS: lowest concentration stimulating IFN-α production at least 3-fold over background, Luminex, read-out: IFN MEC
Reported minimal effective concentration values for the following compounds.

Ask: Suppose we examine the compound `COCCOc1nc(N)c2c(n1)N(Cc1cccc(CN3CCCC3)c1)CC(=O)N2` ; what minimal effective concentration value has been reported?
Reply: ≤ 0.03 µM

###

# Test system: human Peripheral Blood Mononuclear Cell (PMBC)
# ASSAY METHOD TEXT: PBMC assay: cytokine (IFN-α) stimulation at 24 hours
# Assay type: cell-based
# PARTICULARS: lowest concentration stimulating IFN-α production at least 3-fold over background, Luminex, read-out: IFN MEC
# Description: Assays were conducted to determine cytokine stimulation at 24 hours from human Peripheral Blood Mononuclear Cell (PMBC) using the compounds of the present invention. The assays were run in duplicate, with 8-point, half-log dilution curves. […] The IFN-α MEC value for a compound was the lowest concentration at which the compound stimulated IFN-α production at least 3-fold over the background as determined using the assay method above.
EXPERIMENTAL ENDPOINT: minimal effective concentration

Some solved entries appear below for comparison.
Ask: Suppose we examine the molecule `CCCCOc1nc(N)c2c(n1)N(Cc1ccc(-c3cccc(CN4CCCC4)c3)cc1)CC(=O)N2` ; what minimal effective concentration value has been reported?
Reply: ≤ 0.03 µM

Ask: Request: `Nc1nc(OCCOc2ccccc2)nc2c1NC(=O)CN2Cc1cccc(CN2CCCC2)c1`
Reply: > 0.03 µM

Ask: Request: CCCCOc1nc(N)c2c(n1)N(Cc1cccc(CN3C(C)CCC3C)c1)CC(=O)N2 (stereo not shown)
Reply: ≤ 0.03 µM

Read the next record carefully.
Ask: Suppose we examine the molecule `CCCCOc1nc(N)c2c(n1)N(Cc1ccc3c(c1)CN(CC1CCC1)CC3)CC(=O)N2` ; what minimal effective concentration value has been reported?
Reply: ≤ 0.03 µM

###

Reported minimal effective concentration values for the following compounds.
# System: human Peripheral Blood Mononuclear Cell (PMBC)
# ASSAY METHOD TEXT: PBMC assay: cytokine (IFN-α) stimulation at 24 hours
# Format: cell-based
# PARTICULARS: lowest concentration stimulating IFN-α production at least 3-fold over background, Luminex, read-out: IFN MEC

Ask: Suppose we examine the compound `COCCOc1nc(N)c2[nH]c(=O)c(=O)n(Cc3ccc(-c4ccc(CN5CCCC5)cc4)cc3)c2n1` ; what minimal effective concentration value has been reported?
Reply: ≤ 0.03 µM

Ask: Request: `Nc1nc(OC2CCCC2)nc2c1NC(=O)CN2Cc1ccnc(N2CCOCC2)c1`
Reply: > 0.03 µM

---
Ask: Suppose we examine the compound `CCCCOc1nc(N)c2c(n1)N(Cc1cccc(CNc3ccccn3)c1)CC(=O)N2` ; what minimal effective concentration value has been reported?
Reply: > 0.03 µM

Ask: Request: `CCCCOc1nc(N)c2c(n1)N(Cc1ccc(-c3ccc(CN4CCCC4)cc3)cc1)CC(=O)N2`
Reply: ≤ 0.03 µM

###

# System: human Peripheral Blood Mononuclear Cell (PMBC)
# ASSAY METHOD TEXT: PBMC assay: cytokine (IFN-α) stimulation at 24 hours
# Assay type: cell-based
# PARTICULARS: lowest concentration stimulating IFN-α production at least 3-fold over background, Luminex, read-out: IFN MEC
Reported minimal effective concentration values for the following molecules.

Ask: Record lookup: for human Peripheral Blood Mononuclear Cell (PMBC), what minimal effective concentration belongs to Nc1nc(OCc2ccccc2)nc2c1NC(=O)CN2Cc1cccc(CN2CCCC2)c1 [Example 15] ?
Reply: > 0.03 µM

---
Ask: Record lookup: for human Peripheral Blood Mononuclear Cell (PMBC), what minimal effective concentration belongs to Cc1ccc(CN2CC(=O)Nc3c(N)nc(OCC4CCCO4)nc32)cn1 (centres unmarked) [Example 114] ?
Reply: > 0.03 µM

Ask: Request: CCCCOc1nc(N)c2[nH]c(=O)c(=O)n(Cc3ccc(-c4cccc(CN5CCCC5)c4)cc3)c2n1 [Example 97]
Reply: ≤ 0.03 µM

Ask: Request: CCCCOc1nc(N)c2c(n1)N(Cc1ccc3c(c1)CN(C(C)C)CC3)CC(=O)N2 [Example 71]
Reply: ≤ 0.03 µM

Ask: Request: CCCCOc1nc(N)c2c(n1)N(Cc1cccc(CN3CCCC3)c1)CCC(=O)N2 [Example 50]
Reply: > 0.03 µM

Ask: Request: Nc1nc(OCC2CCC2)nc2c1NC(=O)CN2Cc1cccc(CN2CCCC2)c1 [Example 7]
Reply: > 0.03 µM

Ask: Request: Nc1nc(O)nc2c1NC(=O)CN2Cc1cccc(CN2CCCC2)c1 [Example 63]
Reply: > 0.03 µM

Ask: Request: CCCCCc1nc(N)c2c(n1)N(Cc1cccc(CN3CCCC3)c1)CC(=O)N2 [Example 53]
Reply: > 0.03 µM

###

# Tested on: human Peripheral Blood Mononuclear Cell (PMBC)
# ASSAY METHOD TEXT: PBMC assay: cytokine (IFN-α) stimulation at 24 hours
# Format: cell-based
# PARTICULARS: lowest concentration stimulating IFN-α production at least 3-fold over background, Luminex, read-out: IFN MEC
Reported minimal effective concentration values for the following molecules.

Some solved entries appear below for comparison.
Ask: Suppose we examine the molecule `CCCCOc1nc(N)c2c(n1)N(Cc1ccnc(N3CCOCC3)c1)CC(=O)N2` ; what minimal effective concentration value has been reported?
Reply: > 0.03 µM

Ask: Request: `COCCOc1nc(N)c2[nH]c(=O)c(=O)n(Cc3ccc(-c4cccc(CN5CCCC5)c4)cc3)c2n1`
Reply: ≤ 0.03 µM

Ask: Request: `Nc1nc(OCCCC(F)(F)F)nc2c1NC(=O)CN2Cc1cccc(CN2CCCC2)c1`
Reply: ≤ 0.03 µM

Ask: Request: `CCC(CC)COc1nc(N)c2c(n1)N(Cc1cccc(CN3CCCC3)c1)CC(=O)N2`
Reply: ≤ 0.03 µM

Ask: Request: `COCCOc1nc(N)c2c(n1)N(Cc1ccc(-c3cccc(CN4CCCC4)c3)cc1)CC(=O)N2`
Reply: ≤ 0.03 µM

Ask: Request: `CCCCOc1nc(N)c2c(n1)N(Cc1ccccc1CN1CCCC1)CC(=O)N2`
Reply: > 0.03 µM

Ask: Request: `Nc1nc(OCCC(F)(F)F)nc2c1NC(=O)CN2Cc1cccc(CN2CCCC2)c1`
Reply: ≤ 0.03 µM

---
Ask: Suppose we examine the molecule `COC[C@H](C)Nc1nc(N)c2c(n1)N(Cc1cccc(CN3CCCC3)c1)CC(=O)N2` ; what minimal effective concentration value has been reported?
Reply: ≤ 0.03 µM

###

# System: human Peripheral Blood Mononuclear Cell (PMBC)
# ASSAY METHOD TEXT: PBMC assay: cytokine (IFN-α) stimulation at 24 hours
# Format: cell-based
# PARTICULARS: lowest concentration stimulating IFN-α production at least 3-fold over background, Luminex, read-out: IFN MEC
Reported minimal effective concentration values for the following molecules.

Ask: Suppose we examine the molecule `Nc1nc(OCC2CCOCC2)nc2c1NC(=O)CN2Cc1cccc(CN2CCCC2)c1` ; what minimal effective concentration value has been reported?
Reply: ≤ 0.03 µM

---
Ask: Suppose we examine the molecule CCCC(C)Oc1nc(N)c2c(n1)N(Cc1ccc(C)nc1)CC(=O)N2 (stereo not shown) ; what minimal effective concentration value has been reported?
Reply: > 0.03 µM

Ask: Request: `CCCCOc1nc(N)c2c(n1)N(Cc1ccc(CN3CCCC3)cc1)CC(=O)N2`
Reply: ≤ 0.03 µM

Ask: Request: `CCCN(C)C(=O)c1nc(N)c2c(n1)N(Cc1ccc(CN3CCCC3)cc1)CC(=O)N2`
Reply: > 0.03 µM

###

Reported minimal effective concentration values for the following compounds.
# Test system: human Peripheral Blood Mononuclear Cell (PMBC)
# ASSAY METHOD TEXT: PBMC assay: cytokine (IFN-α) stimulation at 24 hours
# Format: cell-based
# PARTICULARS: lowest concentration stimulating IFN-α production at least 3-fold over background, Luminex, read-out: IFN MEC

Ask: Suppose we examine the compound `CCCCOc1nc(N)c2c(n1)N(Cc1cccc(CN3CCCC3)c1)CC(=O)N2` ; what minimal effective concentration value has been reported?
Reply: ≤ 0.03 µM

Ask: Request: `CCCCOc1nc(N)c2c(n1)N(Cc1ccc3c(c1)CN(CC1CC1)CC3)CC(=O)N2`
Reply: ≤ 0.03 µM

###

# Test system: human Peripheral Blood Mononuclear Cell (PMBC)
# ASSAY METHOD TEXT: PBMC assay: cytokine (IFN-α) stimulation at 24 hours
# Assay type: cell-based
# PARTICULARS: lowest concentration stimulating IFN-α production at least 3-fold over background, Luminex, read-out: IFN MEC
Reported minimal effective concentration values for the following molecules.

Ask: Suppose we examine the molecule `Nc1nc(N2CCCC2)nc2c1NC(=O)CN2Cc1cccc(CN2CCCC2)c1` ; what minimal effective concentration value has been reported?
Reply: ≤ 0.03 µM

Ask: Request: `CCCCOc1nc(N)c2[nH]c(=O)c(=O)n(Cc3ccc(C)nc3)c2n1`
Reply: > 0.03 µM

Ask: Request: `Nc1nc(NC2CCC2)nc2c1NC(=O)CN2Cc1cccc(CN2CCCC2)c1`
Reply: ≤ 0.03 µM

Ask: Request: `CCCCSc1nc(N)c2c(n1)N(Cc1cccc(CN3CCCC3)c1)CC(=O)N2`
Reply: > 0.03 µM

Ask: Request: `CCCCNc1nc(N)c2[nH]c(=O)c(=O)n(Cc3cccc(CN4CCCC4)c3)c2n1`
Reply: > 0.03 µM

Ask: Request: `Nc1nc(OCC2CCOCC2)nc2c1NC(=O)CN2Cc1ccc(C(F)(F)F)nc1`
Reply: > 0.03 µM

Read the next record carefully.
Ask: Suppose we examine the molecule `Nc1nc(N2CCC2)nc2c1NC(=O)CN2Cc1cccc(CN2CCCC2)c1` ; what minimal effective concentration value has been reported?
Reply: > 0.03 µM

The measurements presented in this section are drawn from patent US11110091B2.
